B1: ATXN2 peptide 913-928 (Ataxin-2), 16-mer library wild type / PABPC1 PABC (PABPC1 PABC domain, residues 544-623) (parent)
chain 1: TLNPNAKEFNPRSFSQ
chain 2: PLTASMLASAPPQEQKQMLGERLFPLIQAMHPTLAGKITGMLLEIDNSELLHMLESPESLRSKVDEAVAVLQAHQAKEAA

- Variants of: B1
- experiment: proteomic peptide phage display deep mutational scan (ProP-PD DMS): M13 P8 16-mer library selected against immobilised GST-tagged bait for four days (rounds), NGS of the eluted pools per day and pseudo-replica
- run_parameters: with PABPC1 PABC (PABPC1 PABC domain, residues 544-623); bait immobilised on MaxiSorp plates (10 µg), library pre-cleared on GST, 2 h binding at 4 °C, five washes; one round per day, days 1-4; value from days 2 and 3; scale: average fractional NGS count over selection days 2 and 3
variants and their reported screen value

mutation_descriptor | screen value
chain 1 N5Y | 0.000372
chain 1 P11I | 9.64e-06
chain 1 P4W | 0
chain 1 P4Q | 0.000331
chain 1 N10G | 0.000262
chain 1 L2D | 0
chain 1 N3P | 0
chain 1 E8L | 0
chain 1 N3I | 0
chain 1 A6P | 0
chain 1 T1S | 0.000147
chain 1 K7E | 0.000169
chain 1 K7M | 3.88e-05
chain 1 N3H | 0
chain 1 E8D | 0
chain 1 S13I | 0
chain 1 P4E | 1.57e-05
chain 1 T1E | 0.000115
chain 1 N5W | 0.000157
chain 1 P4F | 0.000109
chain 1 S15T | 2.11e-05
chain 1 F9Y | 0.000112
chain 1 N10K | 0.000142
chain 1 S13F | 7.96e-05
chain 1 S13E | 0.000117
chain 1 K7R | 0.000217
chain 1 S15K | 0.00027
chain 1 E8I | 0.000142
chain 1 N3K | 0
chain 1 F14T | 0.000127
chain 1 S13H | 0.00026
chain 1 P4A | 0.000191
chain 1 F14S | 8.48e-05
chain 1 S13M | 0.000163
chain 1 N5P | 1.03e-05
chain 1 F9Q | 0
chain 1 N5S | 0.000305
chain 1 N10E | 2.66e-05
